Reference for the values: patent US10612051B2

- experimental_details: Extraction of aqueous bioproduct solutions with 1-butene in a pressure vessel (distribution coefficient)
- Format: physicochemical
- applied_conditions: 1-butene / aqueous phase; Table 1
A collection of molecules and their measured DC (bioproduct distribution coefficient)
Number, no unit, nothing else.

Record excerpt, results attached:
> print(dat)
          molecule  recorded.result
1           CCCC=O             6.96
2         CCC(=O)O             1.01
3        CCCC(C)=O             7.95
4  O=C(O)CCCC(=O)O             0.27
5       O=Cc1ccco1             3.35

In plain terms, `O=C1CCCO1` has a documented DC (bioproduct distribution coefficient) of 3.69

In plain terms, CCCC(=O)OC [Methyl Butyrate] has a documented DC (bioproduct distribution coefficient) of 53.8

In plain terms, `O=C(O)CCC(=O)O` has a documented DC (bioproduct distribution coefficient) of 0.11
